Biological target: T1, Biotin Y46,48,51(SO3) PSGL-1(42-62) peptide (human, sulfotyrosine at Y46, Y48 and Y51; C-terminal Lys-biotin)
T1 construct: also called fully sulfated N-terminal PSGL-1 peptide
T1 peptide: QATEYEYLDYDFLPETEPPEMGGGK
Test: ELISA, immobilized biotin peptide
measurement.type: log10(EC50) (log10 of the value in nM)
// units: nM (pre-log); metric: EC50; scale: log10

Could you tell me which log10(EC50) is on file for 2E12 (antibody, V domains shown, Mouse hybridoma mAb; only variable domains given) VH: QVQLQQSGAELARPGASVKLSCKASGYTFTNYGLNWVKQRTGQGLEWIGEIYPRSGNTYYNEKFKGKATLTADKSSSTAYMQLSSLTSEDSAVYFCATEGAYWGQGTLVTVSA VL: DIVMTQTPLTLSVTIGQPASISCKSSQSLLHGNGKTYLNWLLQRPGQSPKLLIYLVSKLESGIPDRFSGSGSGTDFTLEISRVEAEDLGIYYCLQSTHFPRTFGGGTKLEIK ?
-0.06

Note, next up: 03B04 (antibody, IgG4, V domains shown) VH: EVKLLESGGGLVKPGGSLRLSCAASGFAFSRYTMNWVRQAPGKGLEWVSSISSSSSYIYYADSVKGRFTISRDNAKNSLVLQMNSLRPEDTAVYYCARGGIAANDYWGQGTLVTVSS VL: EIVMTQTPLSLPVTLGQPASISCRSSRNLVHYDGNTYLSWFHQRPGQPPRRLIYKISNRESGVPDRFSGSGSGTDFTLKISRVEAEDVGVYYCLQHTHWPWTFGPGTKVEIK
0.23

Note, next up: 16L15 (antibody, V domains shown, From mouse immunisation; only variable domains given) VH: DVKLVESGGGLVKLGGSLKLSCAASGFTFSSYYMSWVRQTPEKRLEWVATISNGGGSTYYPDSVKDRFTISRDNAKNTLYLQMSSLNSEDTAVYYCAKPLYYSNPWFAYWGQGTLVTVSA VL: DVLLTQTPLSLPVSLGDQASISCRSSQSIVHSNGNTYLEWYLQKPGQSPKLLIYKVSNRFSGVPDRFSGSGSGTDFTLKISRVEAEDLGVYYCFQGSHVPRTFGGGTKLEIK
-0.16

Note, next up: 09D11 (antibody, IgG4, V domains shown) VH: QVQLVESGGGFIQPGGSLRLSCAASGLTFSNYAMTWVRQAPGKGLEWVSTISGGGGNTYYTDSVKGRFTISRDNSKNTLYLQMNSLKAEDTAVYRCAKGLAAALFDYWGQGTLVTVSS VL: DIVLTQSPDSLPVTPGEPASISCRSSRSLLHSNGHNFLAWYLQKPGQSPHLLIYLGSNRASGVPDRFSGSGSGTDFTLKISRVEAEDVGIYYCMQALQTPITFGQGTRLDIK
-1.30

Note, next up: 09A02 (antibody, IgG4, V domains shown) VH: EVQLVQSGGGLVKPGGSLRLSCAASGFTFRTAWMSWVRQAPGKGLEWVGRMKSKNDGGTTDYAAPVKGRFTISRDDSRDTVYLQMNSLKTEDTGVYYCATYAAGATVPWGQGTLVTVSS VL: DIVMTQTPLSAPVTLGQPASISCRSSRSLLQRNGYNYVDWYQQKAGNPPRLLIYLGSRRASGVPDRFSGSGSDKDFTLKISRVEADDVGFYFCKQSLQAPPTFGGGTKIEIT
-0.29

Note, next up: 5E12 (antibody, V domains shown, Mouse hybridoma mAb; only variable domains given) VH: EIQLQQSGAELVRPGASVKLSCTASGFNIKDDYIHWVKQRPEQGLEWIGRIDPANGNTKSAPKFQDKATITADTSSNTAYLHLSSLTSEDTAVYYCSIRFAYWGQGTLVTVSA VL: DVVMTQTPLSLSVSLGDQASISCRSSQSLVYRNGDTYLHWFLQKPGQSPKLLIYKVSNRFSGVPDRFSGSGSGTDFTLKISRVEAEDLGIYFCSQNTHVPYTFGGGTKLEIK
-0.20

Note, next up: 03B01 (antibody, IgG4, V domains shown) VH: QMQLVQSGAEVKKPGASVKVSCRASGYRFSTYAISWVRQAPGQGLEWIGWISTHHGNTKYAQKFQDRVTMTADASTSIAYMELRSLRSDDTAVYYCAAAIGNYWGQGTLVTVSS VL: EIVLTQSPAILSVSPGERASLSCRASQSVSSKLAWYQQKPGQAPRLLIYGASTRATGIPPRFSGSGSGTDFTLTISSLEPEDFAVYYCQQRSNWPLTFGGGTKVEIK
-1.40

Note, next up: 02E06 (antibody, IgG4, V domains shown) VH: QVQLVQSGAEVKKPGASVKVSCKASGYSFTDYYMHWVRQAPGQGLEWMGWMNPNSGNTGYAQTFQGRVTMTRNTSISTAYMELSSLRSEDTAVYYCARGRRVRGTPTFEYWGQGTLVTVSS VL: QSVVTQPPSASGTPGQRVTISCSGRSSNIGSYTVNWFQHLPGTGPKLLIYGNNQRPSGVPGRFSGSKSGTSASLAISGLQSNDEATYYCAAWDDSLNGHYVFGTGTKVTVL
-0.77
